The measurements presented in this section are drawn from paper PMC11513924.

Test system: Plasmodium falciparum 3D7 parasites
EXPERIMENT SUMMARY: P. falciparum 3D7 culture growth assay in erythrocytes (in vitro activity)
Type: cell-based
SETUP CONDITIONS: Plasmodium falciparum, 3D7, Erythrocyte, 48 h; 100 nM compound, % of untreated control; read-out: % Growth at 100 nM (in vitro, 3D7)
METRIC: activity at 0.1 µM (%)
Write the number in % without appending the unit.

O=C(/C=C(\O)C(F)(F)C(F)(F)F)c1ccc(NC(=O)c2ccccc2)nc1    51
CCCCNc1ccc(C(=O)/C=C(\O)C(F)(F)C(F)(F)F)cn1    15
CNc1ccc(C(=O)/C=C(\O)C(F)(F)C(F)(F)F)cn1    97
O=C(/C=C(\O)C(F)(F)C(F)(F)F)c1ccc(NC2CCC2)nc1    16

// next entry
Inquiry: Value lookup for activity at 0.1 µM; key = CC(C)(C)Nc1ccc(C(=O)/C=C(\O)C(F)(F)C(F)(F)F)cn1
Reply text: 97

----------
MEASURED TARGET: PfFNT (Plasmodium falciparum)
Construct: expressed in transfected cells; membranes solubilized
Sequence (O77389 whole entry): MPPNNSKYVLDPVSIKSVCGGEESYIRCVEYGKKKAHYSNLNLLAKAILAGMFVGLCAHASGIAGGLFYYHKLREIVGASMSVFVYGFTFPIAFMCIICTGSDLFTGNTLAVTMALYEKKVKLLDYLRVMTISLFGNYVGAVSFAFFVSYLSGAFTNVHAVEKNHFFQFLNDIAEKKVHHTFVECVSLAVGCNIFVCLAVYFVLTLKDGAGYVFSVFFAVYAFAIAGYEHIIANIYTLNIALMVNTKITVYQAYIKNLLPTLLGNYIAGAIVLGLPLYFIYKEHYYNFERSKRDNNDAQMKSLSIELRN
EXPERIMENT SUMMARY: Fluorescence cross-correlation spectroscopy (FCCS) competition binding to solubilized PfFNT-GFP
SETUP CONDITIONS: competition against BH267.meta-DY647 tracer, Cheng Prusoff; read-out: Ki (FCCS, protein)
Catalogue of pKi values
Please report pKi as the negative decimal logarithm of the molar concentration, giving only the number.

O=C(/C=C(\O)C(F)(F)C(F)(F)F)c1cccnc1 [compound 2, reference compound]    7.46

Next item in the queue.
Inquiry: Can you share its pKi? I mean this compound: O=C(/C=C(\O)C(F)(F)C(F)(F)C(F)(F)F)c1cccnc1
Reply text: 7.52

----------
// values below are reported activity at 0.1 µM
System: Plasmodium falciparum 3D7 parasites
EXPERIMENT SUMMARY: P. falciparum 3D7 culture growth assay in erythrocytes (in vitro activity)
Type: cell-based
SETUP CONDITIONS: Plasmodium falciparum, 3D7, Erythrocyte, 48 h; 100 nM compound, % of untreated control; read-out: % Growth at 100 nM (in vitro, 3D7)
Give just the number in %; leave the unit off.

See these solved cases before continuing.
CC(C)CNc1ccc(C(=O)/C=C(\O)C(F)(F)C(F)(F)F)cn1    17
CCNc1ccc(C(=O)/C=C(\O)C(F)(F)C(F)(F)F)cn1    13
O=C(/C=C(\O)C(F)(F)C(F)(F)F)c1ccc(NCc2ccccc2)nc1    32

Inquiry: State the recorded activity at 0.1 µM for this entry: COc1cc(CNc2ccc(C(=O)/C=C(\O)C(F)(F)C(F)(F)F)cn2)cc(OC)c1OC
Reply text: 105

----------
Test system: Plasmodium falciparum 3D7 parasites
EXPERIMENT SUMMARY: P. falciparum 3D7 culture growth assay in erythrocytes (in vitro activity)
Type: cell-based
SETUP CONDITIONS: Plasmodium falciparum, 3D7, Erythrocyte, 48 h; 100 nM compound, % of untreated control; read-out: % Growth at 100 nM (in vitro, 3D7)
Listed below: activity at 0.1 µM values for each entry.
Just the number please, in %, no unit attached.

Field: example entries. Status: answers known.
CCC(=O)Nc1ccc(C(=O)/C=C(\O)C(F)(F)C(F)(F)F)cn1    10
CCCNc1ccc(C(=O)/C=C(\O)C(F)(F)C(F)(F)F)cn1    4
O=C(/C=C(\O)C(F)(F)C(F)(F)F)c1ccc(NC2CC2)nc1    11

Inquiry: Can you share its activity at 0.1 µM? I mean this compound: O=C(/C=C(\O)C(F)(F)C(F)(F)F)c1ccc(NCC2CC2)nc1
Reply text: 3

Inquiry: // returns reported activity at 0.1 µM for input CCCCCNc1ccc(C(=O)/C=C(\O)C(F)(F)C(F)(F)F)cn1
Reply text: 12

Inquiry: Request the reported activity at 0.1 µM associated with Nc1ccc(C(=O)/C=C(\O)C(F)(F)C(F)(F)F)cn1
Reply text: 65
